Test system: Rattus norvegicus
Experiment: Antiallergic activity against reagin induced passive cutaneous anaphylaxis reaction in rats upon intravenous administration.
Type: functional
Doc: threshold 0.5 mg/kg (exclusive). Items with ED50 beneath it return class 1; others return class 0.

> print(dat)
                                    compound  category.label
 1  CCCCOC(=O)c1nc(O)c2cc3cc(O)c(OC)cc3nc2n1         class 1
 2       CCOC(=O)c1nc(O)c2cc3cc(OC)ccc3nc2n1         class 1
 3           CCOC(=O)c1nc(O)c2cc3ccccc3nc2n1         class 1
 4    COc1cc2cc3c(=O)[nH]c(=O)[nH]c3nc2cc1OC         class 0
 5         O=C(O)c1nc2nc3ccccc3cc2c(=O)[nH]1         class 1
 6  CCOC(=O)c1nc(O)c2cc3cc(OC)c(OCc4ccccc4)cc3nc2n1         class 0
 7  CCOC(=O)c1nc(O)c2cc3cc(OCc4ccccc4)ccc3nc2n1         class 0
 8   CCOC(=O)c1nc(O)c2cc3cc4c(cc3nc2n1)OCCO4         class 0
 9    COc1cc2cc3c(O)nc(-c4ccccc4)nc3nc2cc1OC         class 0
10  COc1cc2cc3c(O)nc(C(=O)[O-])nc3nc2cc1OC.[Na+]         class 1
11   CCOC(=O)c1nc(O)c2cc3c(OC)ccc(OC)c3nc2n1         class 0
12    CCOC(=O)c1nc(O)c2cc3cc(O)c(OC)cc3nc2n1         class 1
13  O=C([O-])c1cc(=O)c2c(OCC(O)COc3cccc4oc(C(=O)[O-])cc(=O)c34)cccc2o1.[Na+].[Na+] [CROMOLYN SODIUM]         class 0
14    CNC(=O)c1nc(O)c2cc3cc(OC)c(OC)cc3nc2n1         class 0
15         CCCCOC(=O)c1nc(O)c2cc3ccccc3nc2n1         class 1
16       CCOC(=O)c1nc(O)c2cc3cc(Cl)ccc3nc2n1         class 1
17       COc1cc2cc3c(O)nc(C(N)=O)nc3nc2cc1OC         class 0
18   CCNC(=O)c1nc(O)c2cc3cc(OC)c(OC)cc3nc2n1         class 0
19  CCOC(=O)c1nc(O)c2c(-c3ccccc3)c3ccccc3nc2n1         class 1
20  CCOC(=O)c1nc(O)c2cc3cc(OCC)c(OCC)cc3nc2n1         class 1
21          O=C(O)c1nc(O)c2cc3cc(O)ccc3nc2n1         class 1
22  CCOC(=O)CNC(=O)c1nc(O)c2cc3cc(OC)c(OC)cc3nc2n1         class 0
23     COc1cc2cc3c(O)nc(C(F)(F)F)nc3nc2cc1OC         class 0
24         CCc1nc(O)c2cc3cc(OC)c(OC)cc3nc2n1         class 0
25        CCOC(=O)c1nc(O)c2cc3cc(F)ccc3nc2n1         class 1
26  CCOC(=O)c1nc(O)c2cc3cc(OCc4ccccc4)c(OC)cc3nc2n1         class 0
27    CCOC(=O)c1nc(O)c2cc3cc(OC)c(O)cc3nc2n1         class 0
28       CCOC(=O)c1nc(O)c2cc3c(Cl)cccc3nc2n1         class 1
29        COc1cc2nc3nc(C(=O)O)nc(O)c3cc2cc1O         class 1
30        CCOC(=O)c1nc(O)c2cc3ccc(F)cc3nc2n1         class 1
31           CCNC(=O)c1nc(O)c2cc3ccccc3nc2n1         class 0
32   CCOC(=O)c1nc(O)c2cc3ccc(OC)c(OC)c3nc2n1         class 1
33        CCOC(=O)c1nc(O)c2cc3cc(O)ccc3nc2n1         class 0
34  CCOC(=O)Cn1c(C(=O)OCC)nc2nc3cc(OC)c(OC)cc3cc2c1=O         class 0
35            COc1cc2cc3c(O)nc(C)nc3nc2cc1OC         class 1
36  CCOC(=O)CCCn1c(C(=O)OCC)nc2nc3cc(OC)c(OC)cc3cc2c1=O         class 1
37               COc1cc2cc3c(O)ncnc3nc2cc1OC         class 0
38  CCOC(=O)c1nc(O)c2cc3cc(OC(C)=O)c(OC)cc3nc2n1         class 1
39  CCOC(=O)c1nc(O)c2cc3cc(OCC)c(OC)cc3nc2n1         class 1
40  CCOC(=O)c1nc(O)c2cc3cc(OC)c(OCC)cc3nc2n1         class 1
41  CCOC(=O)c1nc(=O)c2cc3cc(OC)c(OC)cc3nc2[nH]1 [PIROLATE]         class 1
42       COc1cc2cc3c(O)nc(C(C)=O)nc3nc2cc1OC         class 0
43  CCOC(=O)c1nc(O)c2cc3cc(OC)c(OC)c(OC)c3nc2n1         class 0
44  CCOC(=O)c1nc(O)c2cc3cc(Sc4ccc(OC)cc4)ccc3nc2n1         class 0
